# Tested on: Cirsium arvense
# assay-name: Herbicidal activity against Cirsium arvense (Canada thistle) assessed as induction of leaf necrotic lesions measured 48 hr post compound treatment by leaf disk- puncture bioassay
Calls of active or inactive are those of the source. No cut-off for these calls is given here.
Please reply with one of these outcomes: active, inactive

Answered cases to consult:
| compound | measured-on | class-assignment |
| --- | --- | --- |
| C[C@H]1C/C=C/[C@H]2C=C(CO)[C@@H](C)[C@H]3[C@H](Cc4ccccc4)NC(=O)[C@]32OC(=O)/C=C/[C@H](O)CCC1 | Cirsium arvense | active |
| C=C1[C@@H](C)[C@H]2[C@H](Cc3ccccc3)NC(=O)[C@]23OC(=O)/C=C/[C@H](O)CCC[C@@H](C)C/C=C/[C@H]3[C@@H]1O | Cirsium arvense | active |
| C[C@H]1C/C=C/[C@H]2[C@@H]3O[C@]3(C)[C@@H](C)[C@H]3[C@H](Cc4ccccc4)NC(=O)[C@]32OC(=O)/C=C/[C@@H](O)CCC1 | Cirsium arvense | active |
| O=Cc1ccc(O)cc1 | Cirsium arvense | inactive |
| C=C1[C@@H](C)[C@H]2[C@H](Cc3ccccc3)NC(=O)[C@]23C(=O)/C=C/[C@H](O)CCC[C@@H](C)C/C=C/[C@H]3[C@@H]1O | Cirsium arvense | active |

Could you now consider this next compound?
Hi, sorry to bother you, what did the test record for C=C1[C@@H](C)[C@H]2[C@H](Cc3ccccc3)NC(=O)[C@]23OC(=O)/C=C/CC(O)CC[C@@H](C)C/C=C/[C@H]3[C@@H]1O (stereo partly specified) ?
active

meta.source: ChEMBL document CHEMBL3045282
